Observable: melting point

Past entries and their recorded results:
COCc1c(C(=O)OC(C)C)ncc2c1c1c(OCc3ccccc3)cccc1n2CC(=O)N(C)CCc1ccccc1 | 146 to 147 °C
CC(=O)Nc1ccccc1N1CCOCC1 | 140 to 141 °C
CCCCc1ncc(/C=C(\Cc2cccs2)c2nnn[nH]2)n1Cc1cccc(Cl)c1Cl | 204 to 205 °C
CCOC(=O)C(=O)C1Cc2ccc(NS(=O)(=O)c3ccc(C)cc3)cc2C1=O (stereo not given) | 202 to 204 °C
COC1=CC(C)(O)C(CCC(=O)O)C=C1 (stereo not given) | 142 °C
CC(C)n1nc(-c2c(Nc3ccccc3)nc(N)nc2-c2ccc(F)cc2)ccc1=O | > 250 °C
C[Si](C)(C)C#CCCCn1ncc(C#N)c1N | 125 to 127 °C
COc1cc(OC)c(OC)cc1C=C1CCc2c1oc1ccc(C(=O)O)cc1c2=O | 311 to 313 °C
O=C1Cc2cc(CCCl)ccc2N1 | 168 to 170 °C

Let's switch to this compound now.
Enquiry: Look up melting point: `CCS(=O)(=O)CCOc1cc(CCCOc2nn(Cc3ccccc3)cc2CC(=O)O)n(Cc2ccc(Cl)cc2Cl)n1`
Return: 100 to 101 °C
